ASSAY_COMMENT: gradient 5% acetonitrile 3 min, to 50% in 2 min, to 85% in 15 min, held 3 min, 100 µL/min
DETAILS: column: Zorbax Extend-C18 2.1 x 50 mm; eluents: water / acetonitrile, 0.1% formic acid
MEASURED_ATTRIBUTE: RP-LC retention time (s)
Numbers only, in s.

Example entries begin here.
Memo: CC(C(=O)NCCN1CCN(C)CC1)n1c2ccccc2c2cnn(C)c(=O)c21 (centres undefined) , reported RP-LC retention time: 572

Field RP-LC retention time (entry Cc1nnsc1C(=O)Nc1nnc(SCc2ccc(Cl)c(Cl)c2)s1 ) reads 1020

Report RP-LC retention time for every entry below.
1. O=C(NC1CC1)C1CCN(Cc2cc3ccccc3n2Cc2ccc(Cl)cc2)CC1
2. CCCN(C)c1nccn2c(=O)n(CC(=O)Nc3cccc(Cl)c3)nc12

Reply:
1. 717
2. 724

Could I get RP-LC retention time for every one of these entries?
1. O=C(Cc1ccc([N+](=O)[O-])cc1)NC1CC(=O)N(c2ccc(Cl)cc2)C1 (centres undefined)
2. Cc1ccc(NC(=O)N2CC(c3nc(C(C)C)nn3C)C2)cc1F
3. O=C(c1nnc(-c2ccc(S(=O)(=O)N3CCCC3)cc2)o1)N1CCN(C2CCCCC2)CC1
4. O=C(NCCc1csc(-c2cccs2)n1)C1CCN(C(=O)Cc2cccc(F)c2)CC1
5. COc1ccccc1Nc1c(-c2ccc(SC)cc2)nc2cnccn12
6. CCOc1ccc(NS(=O)(=O)c2cc(C(=O)Nc3cccc(Cl)c3)n[nH]2)cc1

Reply:
760
706
658
797
974
916

* * *

ASSAY_COMMENT: gradient 5% acetonitrile 3 min, to 50% in 2 min, to 85% in 15 min, held 3 min, 100 µL/min
DETAILS: column: Zorbax Extend-C18 2.1 x 50 mm; eluents: water / acetonitrile, 0.1% formic acid
Decision: RP-LC retention time >= 600 s yields y, all other cases yield n.

Answered cases to consult:
Query: Test whether the compound Cc1ccc(C)c(N2CCN(C(=O)C3CCN(c4cnc5nccnc5c4)CC3)CC2)c1 records RP-LC retention time of 600 s or higher.
Reply: y

Query: Could you tell me if the measured RP-LC retention time of COc1ccc(CCC(=O)N2CCC3(C2)C(=O)N(C)c2ccccc23)cc1 (stereo not given) reaches 600 s or more?
Reply: y

Query: RP-LC retention time >= 600 s for Cn1ncc2c(N3CCSCC3)nc(C(=O)NCCc3cccnc3)nc21 ?
Reply: n

Shift focus to the following entry.
Query: State whether the measured RP-LC retention time reaches 600 s, counting equality as reaching it, for Cc1nn(-c2ccc(-c3ccccc3)nn2)c(C)c1S(=O)(=O)N1CCN(C2CCCCC2)CC1
Reply: y

* * *

What RP-LC retention time was measured for each of the following?
ASSAY_COMMENT: gradient 5% acetonitrile 3 min, to 50% in 2 min, to 85% in 15 min, held 3 min, 100 µL/min
DETAILS: column: Zorbax Extend-C18 2.1 x 50 mm; eluents: water / acetonitrile, 0.1% formic acid
Give bare numbers, in s.

Below are worked cases with known answers.
// Cc1nc2c(c(C)c1CCC(=O)NCC1CCN(CC(C)C)C1)c(=O)n(C)c(=O)n2C (stereo not given) : RP-LC retention time value = 610

Memo: CC(C)(C)c1ccc(S(=O)(=O)N2CCC(C(=O)NCc3csc(-c4ccccc4)n3)CC2)cc1 , reported RP-LC retention time: 1130

Looking up COCC(=O)NCC12CCCC=C1NC(=O)CC2 (stereo not given) , I see its RP-LC retention time listed as 605

CCc1nnc([C@@H]2CC(F)(F)CN2C(=O)c2nccn2C)o1 has a reported RP-LC retention time of 631

For reference, reported RP-LC retention time for COc1cccc(-c2nc(-c3ccc4c(c3)ncn4CCN3CCCCC3)no2)c1OC stands at 680

I have 7 compounds here; please give me RP-LC retention time for each one.
1. CN(C(=O)CSc1nnc(-c2ccc(Cl)cc2)o1)C1CCCCC1
2. Cc1nn(CC(=O)NCCCN2CCCC2=O)c(=O)c2nn(-c3ccccc3)c(C)c12
3. CCOC(=O)N1CCC(NC(=O)C(=O)NCCC2=CCCCC2)CC1
4. CCOC(=O)c1noc2ncnc(N3CCN(c4cccc(Cl)c4)CC3)c12
5. CCc1nc2cc(N3CCCC(C(=O)NCC4CCCO4)C3)cnc2nc1CC (stereo not given)
6. CCc1ccc(CNC(=O)c2c(O)c3cccnc3[nH]c2=O)cc1
7. O=C(Nc1ccc(F)c(F)c1)C(=O)c1ccc[nH]1

Reply:
[1090, 642, 842, 1150, 694, 1040, 899]

* * *

ASSAY_COMMENT: gradient 5% acetonitrile 3 min, to 50% in 2 min, to 85% in 15 min, held 3 min, 100 µL/min
DETAILS: column: Zorbax Extend-C18 2.1 x 50 mm; eluents: water / acetonitrile, 0.1% formic acid
Exercise: state measured RP-LC retention time for each of the molecules provided.
One number for each entry, in s.

Memo: Cc1ccc(Sc2nccnc2N2CCCC(C(=O)Nc3ccc(C)c(C)c3)C2)cc1 (stereo not given) , reported RP-LC retention time: 1290

Lab note: measured RP-LC retention time of CCOCCCNC(=O)c1ncoc1-c1ccccc1C(=O)N1CCCC1 was 686

Measured RP-LC retention time of CC(C)Cn1cc(S(=O)(=O)NCc2cccc(C(F)(F)F)c2)c2cccnc21 : 1070

Record O=C([C@@H]1C[C@H](F)CN1C(=O)c1cccc(F)c1)N1CCOCC1 , field RP-LC retention time: 614

Please find the next molecule below.
Reported RP-LC retention time ( Cc1cc(C2CCCN2C(=O)Nc2ccccc2C)no1 (stereo not given) ) = 757

* * *

ASSAY_COMMENT: gradient 5% acetonitrile 3 min, to 50% in 2 min, to 85% in 15 min, held 3 min, 100 µL/min
DETAILS: column: Zorbax Extend-C18 2.1 x 50 mm; eluents: water / acetonitrile, 0.1% formic acid
// bucketize RP-LC retention time: lowest (below 700 s), middle (700 s to below 800 s), highest (800 s or more)

// below: answered molecules
Query: Would you mind sorting CCN(CC)S(=O)(=O)c1ccc2c(c1)N(CC(=O)NCCN(C)C)C(=O)C1CCCCN21 (stereo not drawn) into the appropriate category?
Reply: lowest

Query: Lab note: sort CCc1cc(C2CCCN2C(=O)Nc2ccc(OC)c(OC)c2)on1 (stereo not drawn) into the matching RP-LC retention time band.
Reply: middle

Query: Band for the recorded RP-LC retention time of CCCCn1cc(S(=O)(=O)Nc2ccc(F)cc2Cl)c2cccnc21 ?
Reply: highest

Query: State the band of CCS(=O)(=O)Nc1ccc(C2(C(=O)NCc3cccc(Cl)c3)CCC2)cc1
Reply: highest

Query: Determine which band this molecule sits in: O=C(Cn1cnc2nc(N3CCCC(C(=O)NC4CC4)C3)sc2c1=O)Nc1cccc(Cl)c1 (stereo not drawn)
Reply: lowest

Query: Dear colleague, I would appreciate it if you could identify the bin for COC(=O)c1cc(C)nc2c1c(=O)n(Cc1cc(C)ccc1C)c(=O)n2Cc1ccco1 and reply at your convenience.
Reply: highest

***
Query: Into which bin does this molecule go? O=S1(=O)C[C@H](N2CCN(c3ncccn3)CC2)[C@@H](S(=O)(=O)c2ccc(F)cc2)C1
Reply: middle

Query: Which class holds Cc1c(C#N)c2ccccc2n1CC(=O)NCc1ccc2c(c1)OCCCO2 ?
Reply: highest

Query: Consider COc1ccc(OC)c(NC(=O)N2CCc3nc[nH]c3C2)c1 . To which RP-LC retention time class does it belong?
Reply: lowest

* * *

ASSAY_COMMENT: gradient 5% acetonitrile 3 min, to 50% in 2 min, to 85% in 15 min, held 3 min, 100 µL/min
DETAILS: column: Zorbax Extend-C18 2.1 x 50 mm; eluents: water / acetonitrile, 0.1% formic acid
RP-LC retention time under 900 s gets true (1), anything at or over 900 s gets false (0).

These recorded examples may help you get a feel for the data.
Query: Could you please tell me whether RP-LC retention time recorded for CCOc1ccccc1NS(=O)(=O)c1ccc(-c2c(C)noc2C)cc1 is less than 900 s?
Reply: false (0)

Query: Dear reviewer, please state whether CCc1ccc2nc(NC3=NCN(CCCOC)CN3)nc(C)c2c1 has RP-LC retention time strictly beneath 900 s.
Reply: true (1)

Query: Consider the compound CCCn1cc(C(=O)Nc2ccc(OC)cc2C)c(=O)c2ccc(C)nc21 . Is its RP-LC retention time strictly less than 900 s?
Reply: false (0)

Query: Bench note: check whether O=C(CCc1ccc2c(c1)CN(C(=O)C1COc3ccccc3O1)CCO2)N1CCOCC1 (stereo not given) shows RP-LC retention time below 900 s
Reply: true (1)

Query: Dear reviewer, please state whether Cc1ccc(/C=C/S(=O)(=O)N2CCN(c3ccc(-c4cccs4)nn3)CC2)cc1 has RP-LC retention time strictly beneath 900 s.
Reply: false (0)

Query: RP-LC retention time under 900 s? Item: CCn1nc(CNC(=O)c2cnccn2)c2ccccc21
Reply: true (1)

Query: Below 900 s on RP-LC retention time? Entry Cc1ccc(C2C(S(=O)(=O)c3ccc(C)cc3)=C(O)C(=O)N2Cc2ccco2)cc1 (stereo not given)
Reply: false (0)

Query: Dear reviewer, please state whether O=C(O)c1nnn(-c2ccc(C(F)(F)F)cc2)c1C(F)(F)F has RP-LC retention time strictly beneath 900 s.
Reply: true (1)

Now let's try a different one.
Query: Problem: For the compound COc1ccccc1-c1noc(C2CCCN2C(=O)Nc2cccc(Br)c2)n1 (stereo not given) , is RP-LC retention time under 900 s?
Reply: false (0)
